- System: L1210 leukemia ip in BDF1 mice, survival T/C
- test: NCI In Vivo Anticancer Drug Screen. Data for tumor model L1210 Leukemia (intraperitoneal) in B6D2F1 (BDF1) mice
- conditionInfo: endpoint: mean survival time; dose: 25.0 mg/kg/injection; schedule: Q01DX009 (ip); vehicle: Klucel (hydroxypropylcellulose) (HPC); higher = longer survival
Toxic doses and inconclusive results are not listed.
Would you mind telling me the reported T/C of each entry?

{"molecule": "O=NN(CCCl)C(=O)NCC1CCC(CNC(=O)N(CCCl)N=O)CC1 (centres undefined)", "measurementName": "T/C", "endpointResult": "101 % of control"}
{"molecule": "C=CCOCC(O)CN(C)CCCCCCCCCCCC (centres undefined)", "measurementName": "T/C", "endpointResult": "109 % of control"}
{"molecule": "CC(=O)OCC(OC(C)=O)C(OC(C)=O)C(C#N)OC(C)=O (centres undefined)", "measurementName": "T/C", "endpointResult": "95 % of control"}
{"molecule": "O=C(CCN1CC1)OC1CCCCCC1", "measurementName": "T/C", "endpointResult": "95 % of control"}
{"molecule": "CC1(C)C(C#N)C(=O)N=C(N)C1C(N)=O (centres undefined)", "measurementName": "T/C", "endpointResult": "94 % of control"}
{"molecule": "Brc1cccc2ccccc12", "measurementName": "T/C", "endpointResult": "89 % of control"}

Hello, I would appreciate it if you could give T/C for each entry below.
1. CC(=O)[O][Hg][c]1cc(C)cc([N+](=O)[O-])c1O
2. OC1=NN(Cc2ccccc2)NO1

["92 % of control", "95 % of control"]

Which measured T/C value corresponds to CC(Cc1ccccc1)NC(=O)CCNNC(=O)c1ccncc1 (centres undefined) ? 100 % of control

###

- Tested on: L1210 leukemia ip in BDF1 mice, survival T/C
- test: NCI In Vivo Anticancer Drug Screen. Data for tumor model L1210 Leukemia (intraperitoneal) in B6D2F1 (BDF1) mice
- conditionInfo: endpoint: mean survival time; dose: 200.0 mg/kg/injection; schedule: Q04DX002 (ip); vehicle: Klucel (hydroxypropylcellulose) (HPC); higher = longer survival
Toxic doses and inconclusive results are not listed.
measurementName: T/C

Some entries whose results are on file:
{"compound": "O=C(O)c1cc(Cl)cc(I)c1Br", "T/C": "105 % of control"}
{"compound": "CNC(=O)Oc1ccccc1C(=O)NCO", "T/C": "98 % of control"}
{"compound": "CC(=O)OCC(C)CCC(=O)C(C)C1C(=O)CC2CC3CC(OC(C)=O)CCC3(C)CC21C (stereo not drawn)", "T/C": "100 % of control"}

Hello, I would appreciate it if you could give T/C for each entry below.
1. CCOC(=O)CNc1cccc(Br)c1
2. CC(=O)O[C@@H]1CC[C@]2(C)C(=CC[C@@H]3C4CC5O[C@]6(CCC(C)CN6)C(C)C5[C@]4(C)CCC32)C1 (stereo partly drawn)
3. Clc1ccc(OCc2ccccc2)c(Cl)c1
4. Cc1cc(O)ccc1C1=NCC(C)S1 (stereo not drawn)
5. COC(=O)C1CC(=O)N(Cc2ccccc2)C1 (stereo not drawn)
6. Cc1ccc(NC(=O)COc2ccccc2)c(C)c1

100 % of control
89 % of control
106 % of control
100 % of control
100 % of control
104 % of control

Hello, I would appreciate it if you could give T/C for each entry below.
1. OC1COC(CCl)OC1C1OC(CCl)OCC1O (stereo not drawn)
2. CC(=O)Nc1cccc(C)c1C
3. COC(=O)c1ccc(C(=O)OC)nc1
4. ClC(Cl)C1OCCOCCO1

["96 % of control", "100 % of control", "103 % of control", "100 % of control"]
